target: human kinase Mps-1 (Homo sapiens); construct: N-terminally GST-tagged human full length recombinant Mps-1 kinase; GST (N); experiment: Mps-1 kinase assay (TR-FRET); details: Mps-1 TR-FRET kinase assay; avg; read-out: Mps1 avg (IC50 [mol/l])
Sequence (P33981 whole entry): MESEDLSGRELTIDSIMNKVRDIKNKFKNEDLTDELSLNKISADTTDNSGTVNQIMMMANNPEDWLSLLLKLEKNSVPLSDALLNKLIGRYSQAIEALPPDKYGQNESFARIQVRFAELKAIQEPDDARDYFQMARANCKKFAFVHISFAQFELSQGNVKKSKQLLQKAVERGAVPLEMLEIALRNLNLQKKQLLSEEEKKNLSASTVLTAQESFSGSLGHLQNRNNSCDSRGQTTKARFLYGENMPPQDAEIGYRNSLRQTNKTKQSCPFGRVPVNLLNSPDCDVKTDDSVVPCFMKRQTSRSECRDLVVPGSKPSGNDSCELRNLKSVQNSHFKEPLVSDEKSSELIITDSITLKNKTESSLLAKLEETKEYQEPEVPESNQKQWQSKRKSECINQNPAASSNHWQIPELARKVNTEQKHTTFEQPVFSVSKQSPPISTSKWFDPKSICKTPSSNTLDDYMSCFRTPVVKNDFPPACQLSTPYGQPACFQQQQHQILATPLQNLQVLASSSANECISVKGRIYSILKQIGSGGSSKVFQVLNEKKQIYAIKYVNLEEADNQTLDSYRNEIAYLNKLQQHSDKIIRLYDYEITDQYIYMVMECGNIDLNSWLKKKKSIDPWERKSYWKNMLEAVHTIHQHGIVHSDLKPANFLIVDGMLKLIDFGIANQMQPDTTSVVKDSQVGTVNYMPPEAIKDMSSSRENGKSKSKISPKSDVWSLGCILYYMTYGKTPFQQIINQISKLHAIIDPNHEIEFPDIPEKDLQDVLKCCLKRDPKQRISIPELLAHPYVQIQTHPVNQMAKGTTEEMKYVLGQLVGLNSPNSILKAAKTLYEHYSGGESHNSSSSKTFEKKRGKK
ENDPOINT_NAME: IC50

Look over these answered cases.
>  <COMPOUND>
Cc1nsc(Nc2cnc(C(F)(F)F)cn2)c1C(=O)Nc1ccc(OCC2CCN(CC(F)(F)F)CC2)nc1

>  <IC50>
> 20 µM

$$$$
>  <COMPOUND>
Cc1nsc(Nc2cnc(C(F)(F)F)cn2)c1C(=O)Nc1ccc(OCC2CCN(CCC(F)(F)F)C2)nc1 (centres unmarked)

>  <IC50>
≥ 20 µM

$$$$
>  <COMPOUND>
Cc1nsc(Nc2cnc(C(F)(F)F)cn2)c1C(=O)Nc1ccc(OC2CCCN(C(CF)CF)C2)nc1 (centres unmarked)

>  <IC50>
≥ 20 µM

$$$$

Give IC50 for each listed item.
1. Cc1nsc(Nc2cnc(C(F)(F)F)cn2)c1C(=O)Nc1ccc(F)c(OCCCNCCC(F)(F)F)c1
2. Cc1nsc(Nc2ccc(C#N)cn2)c1C(=O)Nc1cccc(N)c1
3. COC(=O)CNC(=O)c1cccc(NC(=O)c2c(C)nsc2Nc2cnc3ccccc3n2)c1

Response line:
1: ≥ 20 µM; 2: > 20 µM; 3: 12 µM

Give IC50 for each listed item.
1. Cc1nsc(Nc2cnc(C(F)(F)F)cn2)c1C(=O)Nc1ccc(OCCCNCC(F)F)nc1
2. Cc1nsc(Nc2cnc(C(F)(F)F)cn2)c1C(=O)Nc1ccc(F)c(OCCCN(C)CC(F)(F)F)c1

Response line:
1. > 20 µM
2. > 20 µM
